Target: human Nav 1.8 (Homo sapiens, UniProt Q9Y5Y9)
Sequence (Q9Y5Y9 126-399 limits assumed): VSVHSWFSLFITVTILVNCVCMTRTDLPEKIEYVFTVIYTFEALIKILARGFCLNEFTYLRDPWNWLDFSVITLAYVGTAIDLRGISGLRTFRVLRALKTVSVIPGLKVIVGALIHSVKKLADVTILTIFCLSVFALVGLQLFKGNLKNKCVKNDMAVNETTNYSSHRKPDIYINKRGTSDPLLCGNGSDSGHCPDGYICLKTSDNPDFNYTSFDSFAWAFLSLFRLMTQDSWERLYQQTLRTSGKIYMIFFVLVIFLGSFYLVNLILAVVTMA
Sequence (Q9Y5Y9 660-890 limits assumed): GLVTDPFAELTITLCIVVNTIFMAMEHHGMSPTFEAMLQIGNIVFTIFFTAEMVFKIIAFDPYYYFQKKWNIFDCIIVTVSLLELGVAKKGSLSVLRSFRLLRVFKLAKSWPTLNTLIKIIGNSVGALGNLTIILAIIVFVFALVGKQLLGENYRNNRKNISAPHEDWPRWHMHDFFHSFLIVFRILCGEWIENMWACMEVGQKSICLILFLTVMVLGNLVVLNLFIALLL
Sequence (Q9Y5Y9 1148-1722 limits assumed): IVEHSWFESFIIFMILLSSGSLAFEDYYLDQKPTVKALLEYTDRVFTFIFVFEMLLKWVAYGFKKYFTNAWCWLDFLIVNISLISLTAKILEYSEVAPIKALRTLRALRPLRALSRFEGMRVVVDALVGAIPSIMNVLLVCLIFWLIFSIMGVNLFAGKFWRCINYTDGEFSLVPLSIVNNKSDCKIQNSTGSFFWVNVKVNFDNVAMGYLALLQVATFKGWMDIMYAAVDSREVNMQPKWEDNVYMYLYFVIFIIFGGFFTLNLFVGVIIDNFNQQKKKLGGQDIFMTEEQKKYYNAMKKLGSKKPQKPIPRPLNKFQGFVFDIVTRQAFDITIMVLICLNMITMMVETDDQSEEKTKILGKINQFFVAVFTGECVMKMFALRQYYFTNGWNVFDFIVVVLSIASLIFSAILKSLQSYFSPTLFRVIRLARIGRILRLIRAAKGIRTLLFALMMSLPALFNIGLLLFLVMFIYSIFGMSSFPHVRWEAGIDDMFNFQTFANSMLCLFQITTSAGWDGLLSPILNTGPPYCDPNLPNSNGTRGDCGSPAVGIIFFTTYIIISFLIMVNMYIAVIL
Assay: E-VIPR assay detecting and measuring Nav inhibition properties
Format: cell-based
Conditions: HEK cells expressing a truncated form of human Nav 1.8; compound numbers without "*" (not marked as run in the presence of human serum); read-out: measured IC50 value in the E-VIPR Assay
Listing: IC50 of selected molecules

Recorded IC50, per entry:
Which IC50 is reported for this molecule? CC[C@H](CO)COc1c([C@H]2[C@H](C(=O)Nc3ccnc(C(N)=O)c3)O[C@@](C)(C(F)(F)F)[C@H]2C)ccc(F)c1F (single isomer, unassigned) [Compound 93]
< 10 nM

Which IC50 is reported for this molecule? C[C@H]1[C@@H](c2ccc(F)c(F)c2OCC2CCOC2)[C@H](C(=O)Nc2ccnc(C(N)=O)c2)O[C@@]1(C)C(F)(F)F (single isomer, unassigned)
< 10 nM

The record that follows has no IC50 shown yet.
Which IC50 is reported for this molecule? `COc1c([C@H]2[C@H](C(=O)Nc3ccnc(C(=O)N4CC5CC(C4)N5C)c3)O[C@@](C)(C(F)(F)F)[C@H]2C)ccc(F)c1F`
< 10 nM

###

Target: UniProt:Q9Y5Y9
Assay: E-VIPR assay detecting and measuring Nav inhibition properties
Assay type: cell-based
Conditions: HEK cells expressing a truncated form of human Nav 1.8; compound numbers without "*" (not marked as run in the presence of human serum); read-out: measured IC50 value in the E-VIPR Assay
Listing: IC50 of selected compounds

Recorded IC50, per entry:
Which IC50 is reported for this compound? `C[C@H]1[C@@H](c2ccc(F)c(F)c2OCc2nccn2C)[C@H](C(=O)Nc2ccnc(C(N)=O)c2)O[C@@]1(C)C(F)(F)F`
< 10 nM

Which IC50 is reported for this compound? `COc1c([C@H]2[C@H](C(=O)Nc3ccnc(C(=O)N4CCNCC4)n3)O[C@@](C)(C(F)(F)F)[C@H]2C)ccc(F)c1F`
10 to 100 nM

Which IC50 is reported for this compound? `C[C@H]1[C@@H](c2ccc(F)c(F)c2OCC2(CO)CCC2)[C@H](C(=O)Nc2ccnc(C(N)=O)c2)O[C@@]1(C)C(F)(F)F`
10 to 100 nM

Continuing:
Which IC50 is reported for this compound? `COc1c([C@H]2[C@H](C(=O)Nc3ccnc(C(=O)N4C[C@@H](N)[C@H](OC)C4)c3)O[C@@](C)(C(F)(F)F)[C@H]2C)ccc(F)c1F`
< 10 nM

Which IC50 is reported for this compound? `COc1c([C@H]2[C@H](C(=O)Nc3cc(C(=O)N4CCNCC4)ncn3)O[C@@](C)(C(F)(F)F)[C@H]2C)ccc(F)c1F`
10 to 100 nM

Which IC50 is reported for this compound? `COc1c([C@H]2[C@H](C(=O)Nc3ccnc(C(=O)N4C[C@@H](OC)[C@@H](N(C)C)C4)c3)O[C@@](C)(C(F)(F)F)[C@H]2C)ccc(F)c1F`
< 10 nM

###

Listing: IC50 of selected compounds
Target: human Nav 1.8 (Homo sapiens, UniProt Q9Y5Y9)
Experiment: E-VIPR assay detecting and measuring Nav inhibition properties
Type: cell-based
Conditions: HEK cells expressing a truncated form of human Nav 1.8; compound numbers without "*" (not marked as run in the presence of human serum); read-out: measured IC50 value in the E-VIPR Assay

Recorded IC50, per entry:
Which IC50 is reported for this compound? C[C@H]1[C@@H](c2ccc(F)c(F)c2OCC(=NO)C2CC2)[C@H](C(=O)Nc2ccnc(C(N)=O)c2)O[C@@]1(C)C(F)(F)F (single isomer, unassigned) [Compound 183]
< 0.01 µM

Which IC50 is reported for this compound? COc1c([C@H]2[C@H](C(=O)Nc3ccnc(C(=O)N4CC5(CCN5C)C4)c3)O[C@@](C)(C(F)(F)F)[C@H]2C)ccc(F)c1F [Compound 216]
< 0.01 µM

Which IC50 is reported for this compound? C=C(COc1c([C@H]2[C@H](C(=O)Nc3ccnc(C(N)=O)c3)O[C@@](C)(C(F)(F)F)[C@H]2C)ccc(F)c1F)C(F)(F)F [Compound 75]
< 0.01 µM

Continuing:
Which IC50 is reported for this compound? C[C@H]1[C@@H](c2ccc(F)c(F)c2OCCN2CC3(CCOC3)C2)[C@H](C(=O)Nc2ccnc(C(N)=O)c2)O[C@@]1(C)C(F)(F)F [Compound 126]
0.01 to 0.1 µM

Which IC50 is reported for this compound? COc1c([C@H]2[C@H](C(=O)Nc3ccnc(C(N)=O)c3)O[C@@](C)(C(F)(F)F)[C@H]2C)ccc(OC2CC(F)(F)C2)c1F [Compound 207]
< 0.01 µM

Which IC50 is reported for this compound? CNC(=O)c1cc(NC(=O)[C@@H]2O[C@@](C)(C(F)(F)F)[C@@H](C)[C@H]2c2ccc(F)c(F)c2OCC2COC2)ccn1 [Compound 66]
< 0.01 µM
